Every entry's value here was drawn from patent US20190062438A1.

# EXPERIMENTAL_TARGET: T1, soluble Homo sapiens CD131 comprising a C-terminal 6xHis tag (human, UniProt P32927 17-438)
# T1 construct: truncated after Ser438, C-terminal 6xHis; also called shCD131; shβc
# T1 sequence: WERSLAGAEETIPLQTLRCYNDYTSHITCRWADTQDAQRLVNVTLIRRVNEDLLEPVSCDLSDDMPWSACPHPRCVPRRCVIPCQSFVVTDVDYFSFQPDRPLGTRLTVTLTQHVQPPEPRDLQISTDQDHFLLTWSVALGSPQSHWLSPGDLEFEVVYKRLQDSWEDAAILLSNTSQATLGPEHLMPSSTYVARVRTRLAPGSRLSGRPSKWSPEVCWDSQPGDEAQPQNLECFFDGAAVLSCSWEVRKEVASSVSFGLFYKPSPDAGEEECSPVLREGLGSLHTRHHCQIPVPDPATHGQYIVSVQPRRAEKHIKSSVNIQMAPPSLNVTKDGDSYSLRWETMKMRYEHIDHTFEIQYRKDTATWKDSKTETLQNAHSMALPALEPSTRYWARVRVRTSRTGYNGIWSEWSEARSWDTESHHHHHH
# TEST_DESCRIPTION: SPR, Fab over captured shCD131
RECORDED_METRIC: kon (M⁻¹ s⁻¹)
Just the number in M⁻¹ s⁻¹, nothing appended.

9A2-VR39.04 Fab (Fab, V domains shown, recombinant Fab) VH: EVQLLESGGGLVQPGGSLRLSCAASGFTFNWFQHIWVRQAPGKGLEWVSSINGRGRVTYYADSVKGRFTISRDNSKNTLYLQMNSLRAEDTAVYYCARFYDSFFDIWGQGTMVTVSS VL: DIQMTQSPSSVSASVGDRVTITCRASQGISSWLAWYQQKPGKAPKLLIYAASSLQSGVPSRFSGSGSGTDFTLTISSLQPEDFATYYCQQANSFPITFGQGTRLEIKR	3.55e+06
9A2-VR24.124 Fab (Fab, V domains shown, recombinant Fab) VH: EVQLLESGGGLVQPGGSLRLSCAASGFTFPWYRVHWVRQAPGKGLEWVSSIRSSGGFTYYTPSVRGRFTISRDNSKNTLYLQMNSLRAEDTAVYYCARFYDSFFDIWGQGTMVTVSS VL: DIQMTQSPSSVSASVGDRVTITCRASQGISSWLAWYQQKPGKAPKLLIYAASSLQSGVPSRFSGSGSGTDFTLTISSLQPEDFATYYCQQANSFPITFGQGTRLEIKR	2.9e+06
9A2-VR24.97 Fab (Fab, V domains shown, recombinant Fab) VH: EVQLLESGGGLVQPGGSLRLSCAASGFTFPWYRVHWVRQAPGKGLEWVSSIRSSGGFPYYSLSVKGRFTISRDNSKNTLYLQMNSLRAEDTAVYYCARFYDSFFDIWGQGTMVTVSS VL: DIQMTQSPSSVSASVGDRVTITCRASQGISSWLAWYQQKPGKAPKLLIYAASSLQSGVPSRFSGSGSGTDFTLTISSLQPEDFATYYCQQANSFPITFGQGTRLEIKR	3.2e+06
9A2-VR24.91 Fab (Fab, V domains shown, recombinant Fab) VH: EVQLLESGGGLVQPGGSLRLSCAASGFTFPWYRVHWVRQAPGKGLEWVSSIHTHRQVTYYADSVKGRFTISRDNSKNTLYLQMNSLRAEDTAVYYCARFYDSFFDIWGQGTMVTVSS VL: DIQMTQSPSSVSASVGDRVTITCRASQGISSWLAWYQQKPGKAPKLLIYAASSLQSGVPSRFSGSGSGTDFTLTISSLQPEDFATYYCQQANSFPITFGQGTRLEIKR	2.78e+06

Let's switch to this binder now.
Request: Output kon of 9A2-VR24.110 Fab (Fab, V domains shown, recombinant Fab) VH: EVQLLESGGGLVQPGGSLRLSCAASGFTFPWYRVHWVRQAPGKGLEWVSSIRSSGGFPYYNNHVKGRFTISRDNSKNTLYLQMNSLRAEDTAVYYCARFYDSFFDIWGQGTMVTVSS VL: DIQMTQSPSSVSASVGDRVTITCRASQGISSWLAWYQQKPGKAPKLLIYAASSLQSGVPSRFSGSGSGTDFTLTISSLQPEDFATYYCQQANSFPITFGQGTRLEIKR
Response: 3.15e+06
